This collection of values is drawn from paper PMC8842224.

Target: human A2AAR (Homo sapiens)
Sequence (P29274 whole entry): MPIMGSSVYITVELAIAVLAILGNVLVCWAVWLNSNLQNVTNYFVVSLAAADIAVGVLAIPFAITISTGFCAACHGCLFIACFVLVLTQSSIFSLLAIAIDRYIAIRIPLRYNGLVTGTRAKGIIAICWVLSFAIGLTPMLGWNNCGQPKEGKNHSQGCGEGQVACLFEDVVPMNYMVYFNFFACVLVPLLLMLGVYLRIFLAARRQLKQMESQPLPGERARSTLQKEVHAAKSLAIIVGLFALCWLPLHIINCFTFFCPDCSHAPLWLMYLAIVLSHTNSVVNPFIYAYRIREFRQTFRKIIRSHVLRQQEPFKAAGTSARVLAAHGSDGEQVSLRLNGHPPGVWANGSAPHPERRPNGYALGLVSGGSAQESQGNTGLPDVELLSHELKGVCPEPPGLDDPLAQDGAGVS
Settings: read-out: hA2A Ki; displacement of specific [3H]ZM241385 binding, human HeLa cells, ± SEM, n = 3
assay-endpoint: Ki (nM)
Reply numerically in nM, unit not repeated.

Example entries begin here.
compound="N#Cc1c(-c2ccccc2)nc(N)nc1-c1cc(Cl)cc(Cl)c1 [18s]" measured_target="human A2AAR (Homo sapiens)" result_unit=nM numeric_result=95.4
compound="N#Cc1c(-c2ccccc2)nc(Nc2ccccc2)nc1-c1ccccc1F [19e]" measured_target="human A2AAR (Homo sapiens)" result_unit=nM numeric_result=52.5
compound="N#Cc1c(-c2ccccc2)nc(N)nc1-c1cccnc1 [18ac]" measured_target="human A2AAR (Homo sapiens)" result_unit=nM numeric_result=36.4
compound="N#Cc1c(-c2cccc(Cl)c2)nc(N)nc1-c1cccc(Cl)c1 [18ah]" measured_target="human A2AAR (Homo sapiens)" result_unit=nM numeric_result=35.3

Proceed to the following item.
## Input Under human A2AAR (Homo sapiens): Ki value of N#Cc1c(-c2ccccc2)nc(N)nc1-c1cccc(F)c1 [18e] ?
## Output 19.5

----------
Molecular target: human A1AR (Homo sapiens)
Sequence (P30542 1-326): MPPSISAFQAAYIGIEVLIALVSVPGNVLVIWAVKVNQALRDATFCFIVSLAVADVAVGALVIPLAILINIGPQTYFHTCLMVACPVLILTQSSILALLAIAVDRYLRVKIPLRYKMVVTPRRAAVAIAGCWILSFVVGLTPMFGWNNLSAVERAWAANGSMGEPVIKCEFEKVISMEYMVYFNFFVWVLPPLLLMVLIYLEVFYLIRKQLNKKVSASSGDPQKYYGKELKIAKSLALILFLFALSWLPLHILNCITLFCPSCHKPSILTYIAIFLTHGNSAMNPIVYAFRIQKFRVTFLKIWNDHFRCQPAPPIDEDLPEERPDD
Conditions: read-out: hA1 Ki; displacement of specific [3H]DPCPX binding, human CHO cells, ± SEM, n = 3
Recorded Ki by entry
Reply numerically in nM, unit not repeated.

Example entries begin here.
compound="Cc1ccc(-c2nc(Nc3ccccc3)nc(-c3ccccc3)c2C#N)cc1 [19ae]" result_unit=nM numeric_result=37.9
compound="N#Cc1c(-c2ccccc2)nc(N)nc1-c1ccc2ccccc2c1 [18af]" result_unit=nM numeric_result=8.27
compound="N#Cc1cccc(-c2nc(N)nc(-c3ccccc3)c2C#N)c1 [18i]" result_unit=nM numeric_result=6.49
compound="CCNc1nc(-c2ccccc2)c(C#N)c(-c2cccc(Cl)c2)n1 [19m]" result_unit=nM numeric_result=5.1
compound="CNc1nc(-c2ccccc2)c(C#N)c(-c2cccnc2)n1 [19bd]" result_unit=nM numeric_result=19.3

## Input I would be grateful if you could share the reported Ki for N#Cc1cccc(-c2nc(Nc3ccccc3)nc(-c3ccccc3)c2C#N)c1 [19u] .
## Output 18.2

## Input // query: CCNc1nc(-c2ccccc2)c(C#N)c(-c2cccnc2)n1 [19be]
## Output 11.8

## Input // query: CNc1nc(-c2ccccc2)c(C#N)c(-c2cccc(O)c2)n1 [19o]
## Output 2.48

## Input // query: CNc1nc(-c2ccccc2)c(C#N)c(-c2ccc(O)cc2)n1 [19z]
## Output 44.6

## Input // query: COc1cccc(-c2nc(Nc3ccccc3)nc(-c3ccccc3)c2C#N)c1 [19r]
## Output 95.5

## Input // query: N#Cc1c(-c2ccccc2)nc(N)nc1-c1ccccc1F [18b]
## Output 6.44

## Input // query: N#Cc1c(-c2ccccc2)nc(Nc2ccccc2)nc1-c1ccccc1F [19e]
## Output 6.25

## Input // query: N#Cc1c(-c2ccccc2)nc(Nc2ccccc2)nc1-c1ccc2c(c1)OCO2 [19aq]
## Output 11.4

## Input // query: N#Cc1c(-c2ccccc2)nc(N)nc1-c1cccs1 [18y]
## Output 17.3

## Input // query: N#Cc1c(-c2cccc(Cl)c2)nc(N)nc1-c1ccc2c(c1)OCO2 [18aj]
## Output 5.61

----------
Molecular target: human A2BAR (Homo sapiens, UniProt P29275)
Sequence (P29275 1-332): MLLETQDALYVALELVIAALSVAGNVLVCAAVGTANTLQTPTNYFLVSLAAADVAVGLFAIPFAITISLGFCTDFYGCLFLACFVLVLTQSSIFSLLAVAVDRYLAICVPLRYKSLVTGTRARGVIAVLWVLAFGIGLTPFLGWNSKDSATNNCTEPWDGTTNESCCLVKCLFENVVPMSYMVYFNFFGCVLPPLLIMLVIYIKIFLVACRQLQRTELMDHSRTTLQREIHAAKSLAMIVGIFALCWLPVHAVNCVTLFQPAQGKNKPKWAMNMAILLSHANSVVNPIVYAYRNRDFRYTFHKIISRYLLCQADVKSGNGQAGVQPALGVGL
assay-endpoint: log10(Ki) (log10 of the value in nM)
Please keep in mind that the values are log10 of Ki expressed in nM.

Example entries begin here.
compound="N#Cc1c(-c2ccccc2)nc(N)nc1-c1ccco1 [18x]" assay_endpoint=log10(Ki) numeric_result=1.34
compound="N#Cc1c(-c2ccccc2)nc(N)nc1-c1cccs1 [18y]" assay_endpoint=log10(Ki) numeric_result=1.61

## Input I would be grateful if you could share the reported log10(Ki) for N#Cc1c(-c2ccccc2)nc(Nc2ccccc2)nc1-c1ccccc1F [19e] .
## Output 2.03

## Input // query: N#Cc1c(-c2cccc(Cl)c2)nc(N)nc1-c1ccc2c(c1)OCO2 [18aj]
## Output 2.59

## Input // query: CNc1nc(-c2ccccc2)c(C#N)c(-c2cc(OC)cc(OC)c2)n1 [19am]
## Output 1.78

----------
Target: UniProt P29275
pKi: −log10 of the molar value.
Classification field: enter met for pKi values not below 7, not met for values below it.

compound="N#Cc1c(-c2ccccc2)nc(Nc2ccccc2)nc1-c1cccnc1 [19bf]" qualitative_label=met
compound="COc1ccc(-c2nc(Nc3ccccc3)nc(-c3ccccc3)c2C#N)cc1 [19ac]" qualitative_label="not met"

## Input Given the entry N#Cc1c(-c2ccc(F)cc2)nc(N)nc1-c1ccco1 [18am] , answer whether its pKi meets or surpasses 7.
## Output met

## Input // query: N#Cc1c(-c2ccccc2)nc(Nc2ccccc2)nc1-c1ccc(F)cc1 [19w]
## Output met

## Input // query: CNc1nc(-c2ccccc2)c(C#N)c(-c2ccc(C)cc2)n1 [19ad]
## Output not met

----------
Test: in vitro
Settings: human, microsomes, pH 7.4
assay-endpoint: half-life (min)
Reply numerically in min, unit not repeated.

molecule="CNc1nc(-c2ccccc2)c(C#N)c(-c2ccc3c(c2)OCO3)n1 [19ao]" assay_endpoint=half-life numeric_result=15.2

## Input I would be grateful if you could share the reported half-life for C[C@]12CC[C@H]3[C@@H](CCC4=CC(=O)CC[C@@]43C)[C@@H]1CC[C@@H]2O [Testosterone, reference compound] .
## Output 17.1

## Input // query: CNc1nc(-c2ccccc2)c(C#N)c(-c2ccc(F)cc2)n1 [19v]
## Output 18.6

## Input // query: CNc1nc(-c2ccccc2)c(C#N)c(-c2cccc(Cl)c2)n1 [19l]
## Output 6.24

----------
Molecular target: human A1AR (Homo sapiens, UniProt P30542)
Conditions: experimental, A1AR
Recorded Exp absolute binding affinity (ΔGbind) by entry
Reply numerically in kcal/mol, unit not repeated.

Example entries begin here.
compound="CNc1nc(-c2ccccc2)c(C#N)c(-c2ccco2)n1 [19at]" assay_endpoint="Exp absolute binding affinity (ΔGbind)" result_unit=kcal/mol numeric_result=-11.15
compound="CNc1nc(-c2ccccc2)c(C#N)c(-c2ccncc2)n1 [19bb]" assay_endpoint="Exp absolute binding affinity (ΔGbind)" result_unit=kcal/mol numeric_result=-9.88
compound="CNc1nc(-c2ccccc2)c(C#N)c(-c2ccc(OC)cc2)n1 [19ab]" assay_endpoint="Exp absolute binding affinity (ΔGbind)" result_unit=kcal/mol numeric_result=-9.87
compound="CNc1nc(-c2ccccc2)c(C#N)c(-c2ccccc2F)n1 [19d]" assay_endpoint="Exp absolute binding affinity (ΔGbind)" result_unit=kcal/mol numeric_result=-10.27
compound="CNc1nc(-c2ccccc2)c(C#N)c(-c2ccc(C)cc2)n1 [19ad]" assay_endpoint="Exp absolute binding affinity (ΔGbind)" result_unit=kcal/mol numeric_result=-10.30

## Input I would be grateful if you could share the reported Exp absolute binding affinity (ΔGbind) for CNc1nc(-c2ccccc2)c(C#N)c(-c2cccnc2)n1 [19bd] .
## Output -10.52

## Input // query: CNc1nc(-c2ccccc2)c(C#N)c(-c2cccc(F)c2)n1 [19j]
## Output -10.29

----------
Biological target: human A1AR (Homo sapiens, UniProt P30542)
Sequence (P30542 1-326): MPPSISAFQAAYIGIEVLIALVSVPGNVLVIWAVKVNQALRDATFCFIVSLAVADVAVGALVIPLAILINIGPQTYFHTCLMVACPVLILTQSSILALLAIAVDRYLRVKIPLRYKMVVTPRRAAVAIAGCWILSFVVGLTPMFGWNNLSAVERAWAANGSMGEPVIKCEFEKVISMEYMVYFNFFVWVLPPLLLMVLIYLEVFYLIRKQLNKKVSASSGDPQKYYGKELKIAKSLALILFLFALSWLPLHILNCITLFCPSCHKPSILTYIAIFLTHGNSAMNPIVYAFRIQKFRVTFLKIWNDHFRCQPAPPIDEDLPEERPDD
Details: experimental, A1AR
assay-endpoint: Exp absolute binding affinity (ΔGbind) (kcal/mol)
Reply numerically in kcal/mol, unit not repeated.

## Input I would be grateful if you could share the reported Exp absolute binding affinity (ΔGbind) for CNc1nc(-c2ccccc2)c(C#N)c(-c2cc(OC)cc(OC)c2)n1 [19am] .
## Output -10.85

## Input // query: CNc1nc(-c2ccccc2)c(C#N)c(-c2ccoc2)n1 [19ax]
## Output -6.82
